Recorded % Inhib. of IL-5 production, TSLP treated human PBMC + IL-2 + IL-25, Expt. 3 by entry
Molecular target: human IL-17RA (human, UniProt Q96F46 33-866)
Test: cell-based or functional assay
State the answer as a number, implicitly in %.

Illustrative cases are given below, each with its answer.
binder	result-value
2.46.1 (antibody, V domains shown) VH: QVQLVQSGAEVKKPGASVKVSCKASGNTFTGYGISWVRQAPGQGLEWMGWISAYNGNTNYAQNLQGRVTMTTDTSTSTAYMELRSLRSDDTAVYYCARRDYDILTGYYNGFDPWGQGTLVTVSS VL: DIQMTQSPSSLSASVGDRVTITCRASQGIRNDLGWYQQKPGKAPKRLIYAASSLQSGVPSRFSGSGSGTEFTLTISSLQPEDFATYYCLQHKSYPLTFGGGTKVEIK	0
2.67.1 (antibody, V domains shown) VH: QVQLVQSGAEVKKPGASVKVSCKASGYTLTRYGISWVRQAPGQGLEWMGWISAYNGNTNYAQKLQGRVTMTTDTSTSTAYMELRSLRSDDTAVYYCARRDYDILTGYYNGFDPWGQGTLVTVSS VL: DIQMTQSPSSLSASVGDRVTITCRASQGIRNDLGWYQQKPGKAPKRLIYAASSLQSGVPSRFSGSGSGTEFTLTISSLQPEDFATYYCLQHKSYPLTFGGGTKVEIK	3
4.357.1 (antibody, V domains shown) VH: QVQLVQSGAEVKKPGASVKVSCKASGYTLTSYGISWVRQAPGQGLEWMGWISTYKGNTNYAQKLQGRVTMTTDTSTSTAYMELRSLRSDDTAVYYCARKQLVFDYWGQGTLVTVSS VL: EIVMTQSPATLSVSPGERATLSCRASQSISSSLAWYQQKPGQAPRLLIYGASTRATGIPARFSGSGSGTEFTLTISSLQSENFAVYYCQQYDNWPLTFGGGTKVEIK	11
2.225.1 (antibody, V domains shown) VH: QVQLVQSGVEVKKPGASVKVSCKASGYTLTRYGISWVRQAPGQGLEWMGWISAYNGNTNYAQKLQGRVTMTTDTSTSTAYMELRSLRSDDTAVYYCARRDYDILTGYYNGFDPWGQGTLVTVSS VL: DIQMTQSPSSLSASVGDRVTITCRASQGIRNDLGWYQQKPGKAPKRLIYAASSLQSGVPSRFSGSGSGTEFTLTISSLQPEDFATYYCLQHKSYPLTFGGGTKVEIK	0
2.98.1 (antibody, V domains shown) VH: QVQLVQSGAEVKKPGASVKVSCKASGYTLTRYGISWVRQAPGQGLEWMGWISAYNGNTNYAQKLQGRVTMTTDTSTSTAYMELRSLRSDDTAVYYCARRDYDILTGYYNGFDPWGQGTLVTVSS VL: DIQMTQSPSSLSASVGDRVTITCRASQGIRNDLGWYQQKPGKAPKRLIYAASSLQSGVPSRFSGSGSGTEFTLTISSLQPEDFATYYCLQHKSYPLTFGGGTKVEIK	0
3.1545.1 (antibody, V domains shown) VH: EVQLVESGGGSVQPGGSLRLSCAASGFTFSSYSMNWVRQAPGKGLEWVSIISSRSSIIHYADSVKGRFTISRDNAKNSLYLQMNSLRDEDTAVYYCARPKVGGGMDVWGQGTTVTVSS VL: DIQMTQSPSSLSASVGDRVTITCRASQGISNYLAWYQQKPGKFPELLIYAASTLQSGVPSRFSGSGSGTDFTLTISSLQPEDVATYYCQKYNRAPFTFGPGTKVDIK	0

Attention now turns to another entry.
stdin: Please give the documented % Inhib. of IL-5 production, TSLP treated human PBMC + IL-2 + IL-25, Expt. 3 of 4.393.1 (antibody, V domains shown) VH: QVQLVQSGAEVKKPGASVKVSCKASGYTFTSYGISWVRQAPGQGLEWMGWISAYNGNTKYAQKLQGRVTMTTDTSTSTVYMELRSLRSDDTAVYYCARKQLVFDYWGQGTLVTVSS VL: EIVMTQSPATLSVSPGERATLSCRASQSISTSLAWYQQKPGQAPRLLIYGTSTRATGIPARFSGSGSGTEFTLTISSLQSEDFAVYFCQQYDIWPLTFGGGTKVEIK
stdout: 45

This collection of values is drawn from patent US20160208004A1.
